Origin of values: patent US20060135613A1

Form field: melting point (one value per entry).
Only the number, expressed in °C, is required.

# example entries with known answers
# molecule, melting point (°C)
measured = [
    ("O=C(C#Cc1ccc(COc2ccccc2)cc1)N[C@@H](Cc1ccccc1)C(=O)O", 146),
    ("O=C(/C=C/c1ccc(OCc2ccccc2)cc1)NC(Cc1ccccc1)C(=O)O (stereo not shown)", 220),
]

Proceeding to the next molecule to report its melting point.
Please fill in: melting point reported for O=C(/C=C/c1ccc(COc2ccccc2)cc1)NC(Cc1ccccc1)C(=O)O (stereo not shown) = 205
